The measured values listed here are drawn from ChEMBL document CHEMBL1129499.

Please go through the items and note down their AUC.
test: Total absorption was estimated by area under curve (AUC) after intraduodenal administration in rat; design: concentration or dose not given beside the values; conditions: in vivo, id
Please state the figure in ng·h/mL; there is no need to write the unit.

For "Cc1oc([C@@H](Cc2cn(C)c3ccccc23)NC(=O)[C@H](CC(C)C)NC(=O)OC2CCCCC2)nc1C(=O)O" , what is its reported AUC? 1360

For "Cc1[nH]c([C@@H](Cc2cn(C)c3ccccc23)NC(=O)[C@H](CC(C)C)NC(=O)NC2CCCCC2)nc1C(=O)O" , what is its reported AUC? 4.33

For "Cc1[nH]c([C@@H](Cc2cn(C)c3ccccc23)NC(=O)[C@H](CC(C)C)N(C)C(=O)NC2CCCCC2)nc1C(=O)O" , what is its reported AUC? 247

For "Cc1[nH]c([C@@H](Cc2cn(C)c3ccccc23)NC(=O)[C@@H](CC(=O)NC2CCCCC2)CC(C)C)nc1C(=O)O" , what is its reported AUC? 81.7

For "Cc1oc([C@@H](Cc2cn(C)c3ccccc23)NC(=O)[C@H](CC(C)C)NC(=O)N(C)C2CCCCC2)nc1C(=O)O" , what is its reported AUC? 833

For "Cc1oc([C@@H](Cc2cn(C)c3ccccc23)NC(=O)[C@@H](CC(=O)NC2CCCCC2)CC(C)C)nc1C(=O)O" , what is its reported AUC? 292

====

assay: Total absorption was estimated by area under curve (AUC) after intraduodenal administration in rat; set-up: concentration or dose not given beside the values; details: in vivo, id
Please go through the items and note down their AUC.
Please state the figure in ng·h/mL; there is no need to write the unit.

For "Cc1[nH]c([C@@H](Cc2cn(C)c3ccccc23)NC(=O)[C@H](CC(C)C)OC(=O)NC2CCCCC2)nc1C(=O)O" , what is its reported AUC? 347

For "Cc1[nH]c([C@@H](Cc2cn(C)c3ccccc23)NC(=O)[C@H](CC(C)C)NC(=O)N(C)C2CCCCC2)nc1C(=O)O" , what is its reported AUC? 103

For "Cc1[nH]c([C@@H](Cc2cn(C)c3ccccc23)NC(=O)[C@H](CC(C)C)NC(=O)OC2CCCCC2)nc1C(=O)O" , what is its reported AUC? 168

For "Cc1oc([C@@H](Cc2cn(C)c3ccccc23)NC(=O)[C@H](CC(C)C)N(C)C(=O)NC2CCCCC2)nc1C(=O)O" , what is its reported AUC? 983

====

Please go through the items and note down their IC50.
Molecular target: Endothelin-1 receptor (Homo sapiens, UniProt P25101)
Sequence (P25101 whole entry): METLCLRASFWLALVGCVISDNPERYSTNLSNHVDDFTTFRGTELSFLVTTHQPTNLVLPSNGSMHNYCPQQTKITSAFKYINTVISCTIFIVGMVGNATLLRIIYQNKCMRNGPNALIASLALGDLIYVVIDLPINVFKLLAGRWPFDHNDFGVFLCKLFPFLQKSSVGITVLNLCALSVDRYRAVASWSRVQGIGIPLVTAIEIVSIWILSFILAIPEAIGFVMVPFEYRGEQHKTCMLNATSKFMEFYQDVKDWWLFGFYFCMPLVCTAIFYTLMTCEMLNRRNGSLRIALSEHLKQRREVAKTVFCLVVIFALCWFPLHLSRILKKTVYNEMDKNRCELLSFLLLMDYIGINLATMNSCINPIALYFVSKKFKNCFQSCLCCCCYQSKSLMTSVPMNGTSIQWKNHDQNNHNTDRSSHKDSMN
Please state the figure in nM; there is no need to write the unit.

For "Cc1[nH]c([C@@H](Cc2cn(C)c3ccccc23)NC(=O)[C@@H](CC(=O)NC2CCCCC2)CC(C)C)nc1C(=O)O" , what is its reported IC50? 29

For "Cc1oc([C@@H](Cc2cn(C)c3ccccc23)NC(=O)[C@H](CC(C)C)OC(=O)NC2CCCCC2)nc1C(=O)O" , what is its reported IC50? 21

For "Cc1[nH]c([C@@H](Cc2cn(C)c3ccccc23)NC(=O)[C@H](CC(C)C)NC(=O)CC2CCCCC2)nc1C(=O)O" , what is its reported IC50? 470

For "Cc1[nH]c([C@@H](Cc2cn(C)c3ccccc23)NC(=O)[C@H](CC(C)C)OC(=O)NC2CCCCC2)nc1C(=O)O" , what is its reported IC50? 9.3

For "Cc1oc([C@@H](Cc2cn(C)c3ccccc23)NC(=O)[C@@H](CC(=O)NC2CCCCC2)CC(C)C)nc1C(=O)O" , what is its reported IC50? 310

For "Cc1[nH]c([C@@H](Cc2cn(C)c3ccccc23)NC(=O)[C@H](CC(C)C)NC(=O)N(C)C2CCCCC2)nc1C(=O)O" , what is its reported IC50? 1.8

For "Cc1oc([C@@H](Cc2cn(C)c3ccccc23)NC(=O)[C@H](CC(C)C)NC(=O)N(C)C2CCCCC2)nc1C(=O)O" , what is its reported IC50? 25
